# SYSTEM TESTED: Eukaryotic translation initiation factor 2 subunit 1 (Homo sapiens)
# MEASUREMENT DESCRIPTION: Activation of eIF2alpha (unknown origin) assessed as fold stimulation ATF-4 surrogate eIF2alpha phosphorylation at 1.25 uM cell based Dual luciferase reporter assay
# CONDITION INFO: filed as activator
Catalogue of fold change (FC) values
Give only the figure.

N#Cc1cc(NC(=O)NC2CCC(Oc3ccc(C(F)(F)F)cc3)CC2)cc(C(F)(F)F)c1 (stereo not drawn) | 5.7
O=C(Nc1cccc(F)c1F)NC1CC(Oc2ccc(C(F)(F)F)cc2)C1 (trans isomer) | 0.8
O=C(Nc1ccc(F)c(F)c1)N[C@H]1CC[C@H](Oc2ccc(C(F)(F)F)cc2)C1 | 0.9

Ask: Form field: reported fold change (FC) of N#Cc1cc(NC(=O)NC2CCC(Oc3ccc(C(F)(F)F)cc3)CC2)ccc1F (stereo not drawn)
Reply: 3.7

Ask: Form field: reported fold change (FC) of N#Cc1cccc(NC(=O)NC2CCC(Oc3ccc(C(F)(F)F)cc3)CC2)c1 (stereo not drawn)
Reply: 1.9

Ask: Form field: reported fold change (FC) of N#Cc1ccc(NC(=O)NC2CCC(Oc3ccc(C(F)(F)F)cc3)CC2)c(F)c1 (stereo not drawn)
Reply: 2.4

---

# SYSTEM TESTED: Eukaryotic translation initiation factor 2 subunit 1 (Homo sapiens)
# MEASUREMENT DESCRIPTION: Activation of eIF2alpha (unknown origin) assessed as fold stimulation ATF-4 surrogate eIF2alpha phosphorylation at 5 uM cell based Dual luciferase reporter assay
# CONDITION INFO: filed as activator
Catalogue of fold change (FC) values
Give only the figure.

O=C(Nc1cccc(F)c1F)NC1CCC(Oc2ccc(C(F)(F)F)cc2)CC1 (centres undefined) | 9.9
N#Cc1cc(F)cc(NC(=O)NC2CCC(Oc3ccc(C(F)(F)F)cc3)CC2)c1 (centres undefined) | 9.3
O=C(Nc1ccc(F)c(F)c1)NC1CC(Oc2ccc(C(F)(F)F)cc2)C1 (trans isomer) | 4.5
N#Cc1cc(F)cc(NC(=O)NC2CC(Oc3ccc(C(F)(F)F)cc3)C2)c1 (trans isomer) | 5.3
N#Cc1cccc(NC(=O)NC2CC(Oc3ccc(C(F)(F)F)cc3)C2)c1 (stereo in doubt; trans) | 3.5
O=C(Nc1cccc(F)c1F)NC1CC(Oc2ccc(C(F)(F)F)cc2)C1 (trans isomer) | 6.2

Ask: Form field: reported fold change (FC) of `N#Cc1cc(NC(=O)N[C@H]2CC[C@H](Oc3ccc(C(F)(F)F)cc3)C2)cc(C(F)(F)F)c1`
Reply: 8.3

Ask: Form field: reported fold change (FC) of N#Cc1ccc(NC(=O)NC2CCC(Oc3ccc(C(F)(F)F)cc3)CC2)c(F)c1 (centres undefined)
Reply: 6.2

Ask: Form field: reported fold change (FC) of `Cc1ccc(F)cc1NC(=O)N[C@H]1CC[C@H](Oc2ccc(C(F)(F)F)cc2)C1`
Reply: 1.3

---

# SYSTEM TESTED: Eukaryotic translation initiation factor 2 subunit 1 (Homo sapiens) (UniProt P05198)
# Sequence (P05198 whole entry): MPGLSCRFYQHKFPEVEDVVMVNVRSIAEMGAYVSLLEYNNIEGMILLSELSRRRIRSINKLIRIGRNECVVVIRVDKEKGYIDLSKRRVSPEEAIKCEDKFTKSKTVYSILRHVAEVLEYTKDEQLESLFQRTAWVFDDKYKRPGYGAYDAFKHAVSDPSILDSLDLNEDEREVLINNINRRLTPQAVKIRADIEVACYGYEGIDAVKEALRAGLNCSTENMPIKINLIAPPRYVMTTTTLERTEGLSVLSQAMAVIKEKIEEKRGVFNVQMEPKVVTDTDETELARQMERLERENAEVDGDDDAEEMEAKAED
# MEASUREMENT DESCRIPTION: Activation of eIF2alpha (unknown origin) assessed as fold stimulation ATF-4 surrogate eIF2alpha phosphorylation at 5 uM cell based Dual luciferase reporter assay
# CONDITION INFO: filed as activator
READOUT: fold change (FC)
Give only the figure.

Before answering, review these 4 worked examples.
O=C(Nc1cccc(C(F)(F)F)c1)NC1CC(Oc2ccc(C(F)(F)F)cc2)C1 (trans isomer) | 6.5
N#Cc1cccc(NC(=O)N[C@H]2CC[C@H](Oc3ccc(C(F)(F)F)cc3)C2)c1 | 1.6
N#Cc1cccc(NC(=O)NC2CCC(Oc3ccc(C(F)(F)F)cc3)CC2)c1 (stereo not given) | 6.1
Cc1ccc(F)cc1NC(=O)NC1CC(Oc2ccc(C(F)(F)F)cc2)C1 (stereo not given) | 1.4

Moving on to another compound below.
Ask: Form field: reported fold change (FC) of N#Cc1ccc(F)c(NC(=O)NC2CCC(Oc3ccc(C(F)(F)F)cc3)CC2)c1 (stereo not given)
Reply: 1.5

---

# MEASUREMENT DESCRIPTION: Antiproliferative activity against human CRL-2813 cells assessed as inhibition of cell growth measured after 5 days by SRB assay
# Format: functional, cell-based
# CONDITION INFO: crl-2813
Catalogue of pIC50 values
Value format note: pIC50 is -log10 of concentration (mol/L); just state the number.

N#Cc1cccc(NC(=O)NC2CC(Oc3ccc(C(F)(F)F)cc3)C2)c1 (stereo in doubt; trans) | 5.31

Moving on to another compound below.
Ask: Form field: reported pIC50 of O=C(Nc1cccc(C(F)(F)F)c1)NC1CC(Oc2ccc(C(F)(F)F)cc2)C1 (cis isomer)
Reply: 5.59

---

# SYSTEM TESTED: Eukaryotic translation initiation factor 2 subunit 1 (Homo sapiens) (UniProt P05198)
# MEASUREMENT DESCRIPTION: Activation of eIF2alpha (unknown origin) assessed as fold stimulation ATF-4 surrogate eIF2alpha phosphorylation at 1.25 uM cell based Dual luciferase reporter assay
# CONDITION INFO: filed as activator
Decide by fold change (FC): equal to or exceeding 3 means Y, less means N.

Worked set:
O=C(Nc1cccc(C(F)(F)F)c1)NC1CC(Oc2ccc(C(F)(F)F)cc2)C1 (trans isomer) | N
N#Cc1cc(NC(=O)NC2CC(Oc3ccc(C(F)(F)F)cc3)C2)cc(C(F)(F)F)c1 (trans isomer) | Y
N#Cc1cc(F)cc(NC(=O)NC2CCC(Oc3ccc(C(F)(F)F)cc3)CC2)c1 (centres undefined) | Y
O=C(Nc1cccc(F)c1F)NC1CCC(Oc2ccc(C(F)(F)F)cc2)CC1 (centres undefined) | Y
N#Cc1ccc(NC(=O)NC2CCC(Oc3ccc(C(F)(F)F)cc3)CC2)cc1F (trans isomer) | Y
Cc1ccc(F)cc1NC(=O)N[C@H]1CC[C@H](Oc2ccc(C(F)(F)F)cc2)C1 | N

Ask: Check this molecule for fold change (FC) at or above 3: `N#Cc1cc(F)cc(NC(=O)N[C@H]2CC[C@H](Oc3ccc(C(F)(F)F)cc3)C2)c1`
Reply: N

Ask: Check this molecule for fold change (FC) at or above 3: O=C(Nc1ccc(F)c(F)c1)NC1CCC(Oc2ccc(C(F)(F)F)cc2)CC1 (trans isomer)
Reply: N

Ask: Check this molecule for fold change (FC) at or above 3: N#Cc1ccc(F)c(NC(=O)NC2CCC(Oc3ccc(C(F)(F)F)cc3)CC2)c1 (centres undefined)
Reply: N

---

# SYSTEM TESTED: Eukaryotic translation initiation factor 2 subunit 1 (Homo sapiens) (UniProt P05198)
# MEASUREMENT DESCRIPTION: Activation of eIF2alpha (unknown origin) assessed as fold stimulation ATF-4 surrogate eIF2alpha phosphorylation at 5 uM cell based Dual luciferase reporter assay
# CONDITION INFO: filed as activator
Decide by fold change (FC): equal to or exceeding 8 means YES, less means NO.

N#Cc1ccc(NC(=O)NC2CCC(Oc3ccc(C(F)(F)F)cc3)CC2)cc1F (trans isomer) | YES

Ask: Check this molecule for fold change (FC) at or above 8: Cc1ccc(F)cc1NC(=O)NC1CCC(Oc2ccc(C(F)(F)F)cc2)CC1 (stereo not drawn)
Reply: NO

Ask: Check this molecule for fold change (FC) at or above 8: `O=C(Nc1cccc(C(F)(F)F)c1)N[C@H]1CC[C@H](Oc2ccc(C(F)(F)F)cc2)C1`
Reply: NO

Ask: Check this molecule for fold change (FC) at or above 8: N#Cc1cc(NC(=O)NC2CC(Oc3ccc(C(F)(F)F)cc3)C2)cc(C(F)(F)F)c1 (trans isomer)
Reply: YES

Ask: Check this molecule for fold change (FC) at or above 8: O=C(Nc1ccc(F)c(F)c1)NC1CCC(Oc2ccc(C(F)(F)F)cc2)CC1 (trans isomer)
Reply: NO

Ask: Check this molecule for fold change (FC) at or above 8: `O=C(Nc1ccc(F)c(F)c1)N[C@H]1CC[C@H](Oc2ccc(C(F)(F)F)cc2)C1`
Reply: NO

Ask: Check this molecule for fold change (FC) at or above 8: O=C(Nc1cccc(C(F)(F)F)c1)NC1CCC(Oc2ccc(C(F)(F)F)cc2)CC1 (stereo not drawn)
Reply: YES

---

# SYSTEM TESTED: Eukaryotic translation initiation factor 2 subunit 1 (Homo sapiens) (UniProt P05198)
# MEASUREMENT DESCRIPTION: Activation of eIF2alpha (unknown origin) assessed as fold stimulation ATF-4 surrogate eIF2alpha phosphorylation at 1.25 uM cell based Dual luciferase reporter assay
# CONDITION INFO: filed as activator
READOUT: fold change (FC)
Give only the figure.

N#Cc1cccc(NC(=O)NC2CC(Oc3ccc(C(F)(F)F)cc3)C2)c1 (stereo in doubt; trans) | 1.6
Cc1ccc(F)cc1NC(=O)NC1CCC(Oc2ccc(C(F)(F)F)cc2)CC1 (configuration not stated) | 1.8
O=C(Nc1cccc(C(F)(F)F)c1)NC1CCC(Oc2ccc(C(F)(F)F)cc2)CC1 (configuration not stated) | 3.6
O=C(Nc1ccc(F)c(F)c1)NC1CC(Oc2ccc(C(F)(F)F)cc2)C1 (trans isomer) | 2.2
O=C(Nc1cccc(C(F)(F)F)c1)N[C@H]1CC[C@H](Oc2ccc(C(F)(F)F)cc2)C1 | 1.2
N#Cc1cc(NC(=O)NC2CC(Oc3ccc(C(F)(F)F)cc3)C2)cc(C(F)(F)F)c1 (cis isomer) | 4.3
Cc1ccc(F)cc1NC(=O)NC1CC(Oc2ccc(C(F)(F)F)cc2)C1 (configuration not stated) | 0.7
N#Cc1cccc(NC(=O)NC2CC(Oc3ccc(C(F)(F)F)cc3)C2)c1 (stereo in doubt; cis) | 1.1

Moving on to another molecule below.
Ask: Form field: reported fold change (FC) of O=C(Nc1cccc(C(F)(F)F)c1)NC1CC(Oc2ccc(C(F)(F)F)cc2)C1 (cis isomer)
Reply: 1.2
